# System: Trypanosoma cruzi
# measurementProtocol: Antitrypanosomal activity against Trypanosoma cruzi Tulahuen amastigotes infected in mouse C3H cells after 72 hrs by microplate reader analysis
# Format: functional, organism-based
assayEndpoint: IC50 (nM)

O=C(Cn1ccnc1[N+](=O)[O-])NCc1ccccc1 [BENZNIDAZOLE] = 3000

[A] C[C@]1(CO)/C(=N\O)CC[C@]2(C)[C@@H]1CC[C@@H]1C[C@H]3C[C@]12CC[C@@]3(O)CO
[B] C[C@]12COS(=O)O[C@H]1CC[C@]1(C)[C@@H]2CC[C@@H]2C[C@H]3C[C@]21CC[C@@]3(O)CO (stereo not given in full)
Request: // compare measured IC50, left A , right B , return larger // return label of chosen record
Response: A
